Observed pKd, system Escherichia coli biotin synthase (BioB), His6-BioB (Escherichia coli).
The meaning of pKd here: minus log10 of the concentration in molar units.

INSERT INTO measurements (compound, measured_metric, quantitative_readout) VALUES
  ('C[S+](CC[C@H](N)C(=O)O)C[C@H]1O[C@@H](n2cnc3c(N)ncnc32)[C@H](O)[C@@H]1O (some centres unmarked)', 'pKd', 6.00);

I'm curious: which pKd was measured for C[C@@H]1NC(=O)N[C@@H]1CCCCCC(=O)O tested on Escherichia coli biotin synthase (BioB), His6-BioB (Escherichia coli)? 6.30

###

# TARGET_UNDER_TEST: Escherichia coli biotin synthase (BioB), His6-BioB (Escherichia coli, UniProt P12996, N153Q)
# Sequence (P12996 1-346 N153Q): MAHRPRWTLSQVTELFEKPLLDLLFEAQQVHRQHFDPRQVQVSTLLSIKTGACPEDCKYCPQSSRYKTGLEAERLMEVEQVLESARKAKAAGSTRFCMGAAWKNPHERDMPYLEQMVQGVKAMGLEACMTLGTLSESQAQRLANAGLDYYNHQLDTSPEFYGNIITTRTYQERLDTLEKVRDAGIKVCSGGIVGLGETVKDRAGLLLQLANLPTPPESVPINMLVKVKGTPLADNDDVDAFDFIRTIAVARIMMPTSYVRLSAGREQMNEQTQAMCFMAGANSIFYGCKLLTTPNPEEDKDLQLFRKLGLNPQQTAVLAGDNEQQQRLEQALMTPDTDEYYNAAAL
# ASSAY_TEXT: […] kDa centrifugal filtration binding assay, HPLC
Recorded Kd, one value per entry.
Numbers only; they are read as µM.

INSERT INTO assay_data (molecule, units_text, quantitative_readout) VALUES
  ('C[C@@H]1NC(=O)N[C@@H]1CCCCCC(=O)O', 'µM', 110);

Attention now turns to another entry.
Give its Kd value. Item: C[S+](CC[C@H](N)C(=O)O)C[C@H]1O[C@@H](n2cnc3c(N)ncnc32)[C@H](O)[C@@H]1O (some centres unmarked) 530
